# study_system: T1, rat serum albumin (rat, UniProt P02770 25-608)
# T1 construct: also called RSA
# experiment_summary: SPR, single cycle kinetics, pH 7.4

[
  {
    "binder": "Rh34-H3 (VHH) VHH: QVQLVESGGGLVQPGGSLRLSCAASGRTISLYAVGWFRQAPGKEREFVAAISWTDSSTYYADSVKGRFTISRDNSKNTLYLQMNSLRAEDTAVYYCAADVSIRGLQKYEYDYWGQGTLVTVSS",
    "binding result": "no binding"
  },
  {
    "binder": "Rh46-H5 (VHH) VHH: QVQLVESGGGLVQPGGSLRLSCAASTRTFSSYIMGWFRQAPGKERELVAAISWSGRMTHYADSVKGRFTISRDNAKNTVYLQMNSLRAEDTAIYSCAADRTTAWGAPRSQYDSWGQGTLVTVSS",
    "binding result": "no binding"
  },
  {
    "binder": "Rh34-H2 (VHH) VHH: EVQLVESGGGLVQPGGSLRLSCAASGRTISLYAVGWFRQAPGKEREFVSAISWTDSSTYYADSVKGRFTISRDNSKNTLYLQMNSLRAEDTAVYYCAADVSIRGLQKYEYDYWGQGTLVTVS",
    "binding result": "no binding"
  }
]
